tested on: HCV replicon; experiment: HCV replicon replication assay (NPTII ELISA); type: cell-based, Hepatitis C virus (Huh-7 cells); settings: Hepatitis C virus, Huh-7, 72 h, inhibition of HCV replicon replication in Huh-7 HCV replicon-containing cells, three days incubation, NPT level by ELISA; read-out: EC50
pEC50: −log10 of the molar value.
endpoint.name: pEC50

[
  {
    "chemical.smiles": "CCCCCN(C)c1ccc(N(C(N)=O)c2nc(-c3ccc(F)cc3)cs2)cc1C(F)(F)F",
    "pEC50": "> 6.00"
  },
  {
    "chemical.smiles": "CCCCCCCOc1ccc(N(C(N)=O)c2nc(-c3ccc(C(=O)N(C)C)nc3)cs2)cc1",
    "pEC50": "< 5.00"
  },
  {
    "chemical.smiles": "CCCCCCc1ccc(N(C(N)=O)c2nc(-c3cccnc3)c(F)s2)cc1C(F)(F)F",
    "pEC50": "> 6.00"
  },
  {
    "chemical.smiles": "CCCCCOc1ccc(N(C(N)=O)c2nc(-c3ccc(C(=O)N(C)C)nc3)cs2)cc1C(F)(F)F",
    "pEC50": "> 6.00"
  },
  {
    "chemical.smiles": "CCCCCOc1ccc(N(C(=O)NC(C)(C)C)c2nc(-c3cccnc3)cs2)cc1C(F)(F)F",
    "pEC50": "> 6.00"
  },
  {
    "chemical.smiles": "NC(=O)c1cc(-c2csc(N(C(N)=O)c3ccc(OCC4CCCCC4)c(F)c3)n2)ccc1O",
    "pEC50": "5.00 to 6.00"
  },
  {
    "chemical.smiles": "CCCCCCCOc1ccc(N(C(=O)c2cc(C)on2)c2nc(-c3ccc(Cl)s3)cs2)cc1",
    "pEC50": "> 6.00"
  }
]

Proceed to the following item.
What value of measured pEC50 is listed for CCCCCOc1ccc(N(C(=O)Nc2ccccc2)c2nc(-c3cccnc3)cs2)cc1C(F)(F)F ?
> 6.00

* * *

test system: HCV replicon; assay: HCV replicon replication assay (NPTII ELISA); assay type: cell-based, Hepatitis C virus (Huh-7 cells); conditions: Hepatitis C virus, Huh-7, 72 h, inhibition of HCV replicon replication in Huh-7 HCV replicon-containing cells, three days incubation, NPT level by ELISA; read-out: EC50
pEC50: −log10 of the molar value.
endpoint.name: pEC50

Solved entries (count: 3):
[
  {
    "chemical.smiles": "CCCCCCOc1ccc(N(C(N)=O)c2nc(-c3ccc(O)c(C(N)=O)c3)cs2)cc1",
    "pEC50": "5.00 to 6.00"
  },
  {
    "chemical.smiles": "CCCCCCCCOc1ccc(N(C(=O)COC(C)=O)c2nc(-c3ccc(F)c(F)c3)cs2)cc1",
    "pEC50": "> 6.00"
  },
  {
    "chemical.smiles": "CCCCCOc1ccc(N(CCN(C)C)c2nc(-c3cccnc3)cs2)cc1C(F)(F)F",
    "pEC50": "5.00 to 6.00"
  }
]

What value of measured pEC50 is listed for CCCCCOc1ccc(N(C(=O)C2CC2)c2nc(-c3ccc(CN(C)C)nc3)cs2)cc1C(F)(F)F ?
5.00 to 6.00

What value of measured pEC50 is listed for CCCCCCCCOc1ccc(N(COC(=O)C(C)(C)C)c2nc(-c3cccnc3)c(F)s2)cc1C(F)(F)F ?
> 6.00

What value of measured pEC50 is listed for CCCCCOc1ccc(N(C(C)=O)c2nc(CN(C)C)cs2)cc1C(F)(F)F ?
5.00 to 6.00

What value of measured pEC50 is listed for CCCCCOc1ccc(N(C(N)=O)c2nc(-c3cccnc3C)cs2)cc1C(F)(F)F ?
> 6.00

What value of measured pEC50 is listed for CCCCOc1ccc(N(C(N)=O)c2nc(-c3ccc(O)c(C(N)=O)c3)cs2)cc1C(F)(F)F ?
> 6.00

What value of measured pEC50 is listed for CCCCCCCCOc1ccc(N(C(=O)C(=O)OCC)c2nc(-c3cccnc3)cs2)cc1 ?
> 6.00

What value of measured pEC50 is listed for CCCCCOc1ccc(N(C(=O)OC)c2nc(-c3ccc(F)cc3)cs2)cc1C(F)(F)F ?
> 6.00

What value of measured pEC50 is listed for CCCCCOc1ccc(N(C(=O)c2cc(C)on2)c2nc(-c3cccnc3)cs2)cc1C(F)(F)F ?
> 6.00

What value of measured pEC50 is listed for CC(C)COc1ccc(N(C(N)=O)c2nc(-c3ccccn3)cs2)cc1C(F)(F)F ?
> 6.00

What value of measured pEC50 is listed for CCCCCCCCOc1ccc(N(C(=O)NC(C)(C)C)c2nc(-c3cccnc3)cs2)cc1 ?
5.00 to 6.00

What value of measured pEC50 is listed for CCCCCOc1ccc(N(C(=O)C2CCCCC2)c2nc(-c3ccccn3)cs2)cc1C(F)(F)F ?
> 6.00

What value of measured pEC50 is listed for O=C(O)CCC(=O)N(c1ccc(OCCCCc2cccs2)c(C(F)(F)F)c1)c1nc(-c2cccnc2)c(F)s1 ?
> 6.00

What value of measured pEC50 is listed for COc1ccc(N(C(N)=O)c2nc(-c3ccc(F)cc3)cs2)cc1C(F)(F)F ?
> 6.00
